Where a name gives a salt, the structure may show the parent alone.
Reported endpoint: melting point (°C)

Compound	melting point / °C
CN(C)Cc1ccc2c(NCc3ccc(NC(=O)c4ccc(F)cc4)cc3)nc(N(C)C)nc2c1 (as salt: HCl) [Example 91]	94

1 = CNc1nc(NCc2ccc(NC(=O)c3ccc(Cl)cc3)cc2)c2cc(Br)cc(C)c2n1 [Example 66]
2 = CN(C)c1nc(NCc2ccc(NC(=O)c3ccc(F)cc3)cc2)c2ccc(CN)cc2n1 (as salt: HCl) [Example 90]
3 = Cc1ccc2c(NCc3ccc(NC(=O)C4CCN(Cc5ccccc5)CC4)cc3)nc(N3CCCCCC3)nc2c1 [Example 131]
4 = CC(C)(C)OC(=O)CNc1nc(NCc2ccc(NC(=O)c3ccc(F)cc3)cc2)c2ccccc2n1 [Example 126]
rank_up(items): orders items by reported melting point in ascending numerical order. I would appreciate it if you listed the labels in the requested order.
3, 4, 1, 2

---

Tested on: β-catenin/Tcf-4
Experiment: cells
Format: cell-based
Settings: Homo sapiens, SW480, 24 h, Tcf 33.13 cells derived from SW480; 24 hours of incubation with compound; ratio Firefly/Renilla luciferase
Reported endpoint: IC50 (nM)

The cases that follow already have their IC50 on record.
Smiles	Measure unit	Observed measurement
Cc1ccc2c(NCc3ccc(NC(=O)c4ccc(F)cc4)cc3)nc(NCCN3CCCC3)nc2c1	nM	829
COC[C@@H]1CCCN1c1nc(NCc2ccc(NC(=O)c3ccc(F)cc3)cc2)c2ccc(C)cc2n1	nM	3150
O=C(Nc1ccc(CNc2nc(NC3CCC3)nc3ccccc23)cc1)c1ccc(F)cc1	nM	991

A = Cc1ccc2c(N[C@H](C)c3ccc(NC(=O)c4ccc(F)cc4)cc3)nc(N(C)C)nc2c1
B = COCCN(C)c1nc(NCc2ccc(NC(=O)c3ccc(F)cc3)cc2)c2ccc(C)cc2n1
Problem: Given the entries A and B , determine which has the lower reported IC50. Please identify the chosen entry by its label.
B

---

Test system: β-catenin/Tcf-4
Experiment: cells
Assay type: cell-based
Settings: Homo sapiens, SW480, 24 h, Tcf 33.13 cells derived from SW480; 24 hours of incubation with compound; ratio Firefly/Renilla luciferase
Reported endpoint: IC50 (nM)

Reference set, count: 6
Smiles	Study target	Measure unit	IC50
Cc1cc(C)c2nc(N(C)C)nc(NCc3ccc(NC(=O)c4ccc(F)cc4)cc3)c2c1	β-catenin/Tcf-4	nM	1310
CC(C)c1ccc2c(NCc3ccc(NC(=O)c4ccc(F)cc4)cc3)nc(N(C)C)nc2c1	β-catenin/Tcf-4	nM	327
Cc1ccc2c(NCc3ccc(NC(=O)C4CCN(Cc5ccccc5)CC4)cc3)nc(N(C)CCO)nc2c1	β-catenin/Tcf-4	nM	1420
Cc1ccc2nc(N3CCCCCC3)nc(NCc3ccc(NC(=O)c4ccc(F)cc4)cc3)c2c1	β-catenin/Tcf-4	nM	2010
Cc1ccc2c(NCc3ccc(NC(=O)C4CCN(Cc5ccc(Cl)nc5)CC4)cc3)nc(N(C)C)nc2c1	β-catenin/Tcf-4	nM	415
Cc1ccc2c(NCc3ccc(NC(=O)c4ccc(Br)cc4)cc3)nc(N(C)C)nc2c1	β-catenin/Tcf-4	nM	193

1 = C/C=C/c1ccc2c(NCc3ccc(NC(=O)c4ccc(Cl)nc4)cc3)nc(N(C)C)nc2c1
2 = Cc1ccc2nc(N(C)C)nc(NCc3ccc(NC(=O)Nc4ccc(F)cc4)cc3)c2c1
Which entry shows the lesser value of IC50 here, 1 or 2 ? Returns: label corresponding to the selected item.
1
(1: 118 nM, 2: 549 nM)

---

Tested on: β-catenin/Tcf-4
Test: cells
Assay type: cell-based
Settings: Homo sapiens, SW480, 24 h, Tcf 33.13 cells derived from SW480; 24 hours of incubation with compound; ratio Firefly/Renilla luciferase
Reported endpoint: IC50 (nM)

Study these solved cases before continuing.
Smiles	Reported endpoint	Measure unit	Observed measurement
CCN(C)c1nc(NCc2ccc(NC(=O)c3ccc(F)cc3)cc2)c2ccc(C)cc2n1	IC50	nM	825
CCCC/C=C/c1ccc2c(NCc3ccc(NC(=O)c4ccc(F)cc4)cc3)nc(N(C)C)nc2c1	IC50	nM	429
Cc1ccc2nc(N3C[C@@H](C)N[C@@H](C)C3)nc(NCc3ccc(NC(=O)C4CCN(Cc5ccccc5)CC4)cc3)c2c1	IC50	nM	955

1 = Cc1ccc2c(NCc3ccc(NC(=O)c4ccc(F)cc4)cc3)nc(N(C)CCO)nc2c1
2 = Cc1ccc2nc(N3CCCC3)nc(NCc3ccc(NC(=O)C4CCN(Cc5ccccc5)CC4)cc3)c2c1
3 = CNc1nc(NCc2ccc(NC(=O)c3ccc(Cl)nc3)cc2)c2cc(OC)ccc2n1
Task field, ranking: reported IC50, descending order. Respond with the label ranking, as requested.
3, 2, 1

---

Test system: β-catenin/Tcf-4
Experiment: cells
Format: cell-based
Settings: Homo sapiens, SW480, 24 h, Tcf 33.13 cells derived from SW480; 24 hours of incubation with compound; ratio Firefly/Renilla luciferase
Reported endpoint: IC50 (nM)

Smiles	Measure unit	IC50
CN1CCN(c2nc(NCc3ccc(NC(=O)c4ccc(F)cc4)cc3)c3ccccc3n2)CC1	nM	3040

P = Cc1ccc2c(NCc3ccc(NC(=O)C4CCN(Cc5ccc(F)cc5F)CC4)cc3)nc(N(C)C)nc2c1
Q = CNc1nc(NCc2ccc(NC(=O)c3ccc(C)nc3)cc2)c2ccc(C)cc2n1
Hi team, can someone confirm which has the larger IC50: P or Q ? Thanks. Return value: the label identifying the chosen record.
Q

---

Tested on: β-catenin/Tcf-4
Assay: cells
Type: cell-based
Details: Homo sapiens, SW480, 24 h, Tcf 33.13 cells derived from SW480; 24 hours of incubation with compound; ratio Firefly/Renilla luciferase
Reported endpoint: IC50 (nM)

Smiles	Study target	Observed measurement
CNc1nc(NCc2ccc(NC(=O)c3ccc(Cl)cc3Cl)cc2)c2ccccc2n1	β-catenin/Tcf-4	1820
Cc1ccc2nc(N3CC=CC3)nc(NCc3ccc(NC(=O)C4CCN(Cc5ccccc5)CC4)cc3)c2c1	β-catenin/Tcf-4	597
Cc1ccc2nc(N3CCN[C@@H](C)C3)nc(NCc3ccc(NC(=O)c4ccc(F)cc4)cc3)c2c1	β-catenin/Tcf-4	987
O=C(Nc1ccc(CNc2nc(NCc3ccco3)nc3ccccc23)cc1)c1ccc(F)cc1	β-catenin/Tcf-4	332
Cc1ccc2c(NCc3ccc(NC(=O)C4CCN(Cc5ccccc5)CC4)cc3)nc(N3CCN[C@H](C)C3)nc2c1	β-catenin/Tcf-4	1470

1 = Cc1ccc2c(NCc3ccc(NC(=O)c4ccc(F)cc4)cc3)nc(NCCc3ccccn3)nc2c1
2 = CNc1nc(NCc2ccc(NC(=O)C3CCN(Cc4ccccc4)CC3)cc2)c2ccc(C)cc2n1
Would you mind telling me which has the lower recorded IC50 between 1 and 2 ? Refer to your chosen entry by its label in the reply.
1
(1: 292 nM, 2: 699 nM)

a = CNc1nc(NCc2ccc(NC(=O)c3ccc(F)c(F)c3)cc2)c2c(C)cccc2n1
b = CNc1nc(NCc2ccc(NC(=O)c3ccc(Cl)cc3)cc2)c2cc(Br)cc(C)c2n1
Of a and b , whose reported IC50 is numerically smaller? In your reply, give the label of the chosen option.
b
(b: 649 nM, a: 1140 nM)

P = Cc1ccc2c(NCc3ccc(NC(=O)C4CCN(Cc5ccccc5)CC4)cc3)nc(N(C)CCN(C)C)nc2c1
Q = Cc1ccc2c(NCc3ccc(NC(=O)C4CCN(Cc5ccccc5)CC4)cc3)nc(N3CCCCCC3)nc2c1
R = Cc1ccc2c(NCc3ccc(NC(=O)c4ccc(Cl)cc4)cc3)nc(N3CCCCCC3)nc2c1
// ascending sort on recorded IC50 Please express your ranking as an ordered list of the labels.
R, Q, P
(R: 253 nM, Q: 966 nM, P: 1440 nM)

---

Tested on: β-catenin/Tcf-4
Experiment: cells
Assay type: cell-based
Settings: Homo sapiens, SW480, 24 h, Tcf 33.13 cells derived from SW480; 24 hours of incubation with compound; ratio Firefly/Renilla luciferase
Experimental: Background cell line: SW480 colorectal carcinoma DNA constructs: 1) Tcf-4-Luc: Tcf-4 binding sites driving Firefly Luciferase in the pGL3 vector—to measure the activity of β-catenin/Tcf-4; […] Assay Readout: The luciferase signal was detected using a luciferase detection kit from Promega. […] Firefly substrate was then added and the resulting luminescence was immediately read on a CCD camera imaging device or a luminometer. […] Renilla luciferase was then quantified using the CCD camera or luminometer. […]
Reported endpoint: IC50 (nM)

Below, each entry is followed by its recorded IC50 result.
Smiles	Study target	Observed measurement
CC(C)c1ccc2c(NCc3ccc(NC(=O)C4CCN(Cc5ccccc5)CC4)cc3)nc(N(C)C)nc2c1	β-catenin/Tcf-4	1190
Cc1ccc2nc(N3CCC3)nc(NCc3ccc(NC(=O)C4CCN(Cc5ccccc5)CC4)cc3)c2c1	β-catenin/Tcf-4	423

1 = CCNc1nc(NCc2ccc(NC(=O)c3ccc(F)cc3)cc2)c2ccccc2n1
2 = CCN(CC)c1nc(NCc2ccc(NC(=O)c3ccc(F)cc3)cc2)c2ccc(C)cc2n1
For this pair, 1 and 2 , which shows a numerically higher IC50? Lab note: record the label of whichever item you select.
1
(1: 588 nM, 2: 396 nM)
